Attribution: patent US20250136694A1

Below, each entry is listed alongside its reported Maximum MFI.
experimental_system: T1, human B7-H4 on the cell surface (human, UniProt Q7Z7D3 25-282)
T1 construct: whole, on cells; also called hu B7-H4; CHO-K1/huB7-H4
T1 sequence (looked up): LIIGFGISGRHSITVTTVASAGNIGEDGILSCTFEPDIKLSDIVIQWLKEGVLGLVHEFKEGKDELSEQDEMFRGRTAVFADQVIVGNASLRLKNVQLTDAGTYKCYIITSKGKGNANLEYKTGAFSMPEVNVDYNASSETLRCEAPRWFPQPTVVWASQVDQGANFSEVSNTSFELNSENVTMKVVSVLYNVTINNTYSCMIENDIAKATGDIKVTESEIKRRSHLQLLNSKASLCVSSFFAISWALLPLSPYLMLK
assay: FACS, MDA-MB-468 cells
Give just the numeric value; MFI need not be written.

Illustrative cases are given below, each with its answer.
PR007440 (antibody, IgG1, V domains shown, also called PTM variant (G55S) of PR006004) VH: EVQLVESGGGLVQPGGSLRLSCAASGFAFSNYWMHWARQVPGKGRVWISRISGDSRSTSYADSVKGRFTISRDNAKNMVYLQMNNLRAEDTAVYYCARDRFGDDYYYGMNVWGQGTTVTVSS
185000
PR006008 (antibody, IgG1, V domains shown, also called R7004M6D4; anti-human B7-H4 HCAb monoclonal antibody) VH: EVQLVESGGGLVQPGGSLRLSCAASGFTFTDFWMHWVRQVPGKGREWVSRISPDGSSTSYEDSVKGRFTISRDNAKNTVYLQMHGLRAEDTAVYYCTRFSTGWHRIEYFQHWGQGTLVTVSS
149000
PR006004 (antibody, V domains shown, also called R7004M1A2; anti-human B7-H4 HCAb monoclonal antibody) VH: EVQLVESGGGLVQPGGSLRLSCAASGFAFSNYWMHWARQVPGKGRVWISRISGDGRSTSYADSVKGRFTISRDNAKNMVYLQMNNLRAEDTAVYYCARDRFGDDYYYGMNVWGQGTTVTVSS
183000

Now for another entry.
## Input Item PR007441 (antibody, IgG1, V domains shown, also called PTM variant (G55S) of PR006008) VH: EVQLVESGGGLVQPGGSLRLSCAASGFTFTDFWMHWVRQVPGKGREWVSRISPDSSSTSYEDSVKGRFTISRDNAKNTVYLQMHGLRAEDTAVYYCTRFSTGWHRIEYFQHWGQGTLVTVSS has what recorded Maximum MFI?
## Output 148000
